Test system: SK-MEL-28 melanoma
Method: NCI-60 one-dose screen, 48 h (100 = growth as untreated, 0 = no growth, -100 = all killed)
Measurement Conditions: 10 µM
This is part of a sample that, as a whole, favours compounds with a hit. Of some 83,000 tested, about 20% had one in any assay.
Assay Metric: growth (%)
Use % as the unit, but write only the number.

Worked cases, answers included:
Cc1ccc(/C=C/C(=O)c2ccc(S(=O)(=O)NCCNc3nc(Nc4ccc(F)cc4)nc(N(C)C)n3)cc2)cc1 : 40.5
O=C(Cn1nc(-c2ccccc2)ccc1=O)NNC(=S)NC1CCCCC1 : 108
O/N=C(\CSc1nnc(-c2c[nH]c3ccccc23)n1-c1ccccc1)c1ccc(Br)cc1 : -26.3
CC1(c2ccccc2)NC(=O)N(CC(=O)Nc2ccc(C(=O)/C=C/c3ccccc3)cc2)C1=O (stereo not drawn) : 62.3
COc1cc(/C=C/C(=O)c2ccc(S(=O)(=O)NCCNc3nc(Nc4ccc(F)cc4)nc(N(C)C)n3)cc2)cc(OC)c1OC : 18

Would you kindly share the measured growth for `CCCn1c(=O)c2[nH]c(-c3ccc(OCc4nc5ccc(F)cc5[nH]4)cc3)nc2n(CCC)c1=O` ? 38

Would you kindly share the measured growth for `CN1CCN(c2ccc(Nc3nc(N4CCN(S(=O)(=O)c5ccc(F)cc5)CC4)c4sccc4n3)cc2)CC1` ? -95.4

Would you kindly share the measured growth for `C=CC(=O)Nc1nc(-c2cccc(NS(=O)(=O)c3cccc4c(N(C)C)cccc34)c2)cs1` ? -93.6

----------
Below is a list of entries, each paired with its recorded growth value.
Test system: A498 renal
Method: NCI-60 one-dose screen, 48 h (100 = growth as untreated, 0 = no growth, -100 = all killed)
Measurement Conditions: 10 µM
This is part of a sample that, as a whole, favours compounds with a hit. Of some 83,000 tested, about 20% had one in any assay.
Use % as the unit, but write only the number.

CN1CCc2c(sc3ncnc(N/N=C/c4cn(-c5ccccc5)nc4-c4ccc(Cl)cc4)c23)C1 : 94.1
CN1CCN(c2ccc(C(=O)/C=C/c3ccc(OC(F)F)cc3)cc2)CC1 : 51.6
O=c1cc(-c2ccccc2)oc2cc(OCCCNCc3ccccc3)cc(O)c12 : -14.5
COc1ccccc1[C@H]1C(C(=O)c2ccc(Cl)cc2)C2(N[C@@H]1c1ccccc1)C(=O)Nc1ccccc12 (stereo partly drawn) : -19.2

Would you kindly share the measured growth for `COc1cc(-c2nc3cc(Cl)c(Cl)cc3[nH]2)ccc1OCc1nnc(-c2ccc(Br)cc2)o1` ? -86.5

Would you kindly share the measured growth for `CCN1CCN(Cc2ccc(C(=O)Nc3cccc(-c4cn(-c5ccc6oc(=O)ccc6c5)nn4)c3)cc2C(F)(F)F)CC1` ? -100

Would you kindly share the measured growth for `CC(=O)c1ccc(Nc2nc(SC(C)C)nc(-c3ccccc3)c2C#N)cc1` ? 94.7

Would you kindly share the measured growth for `O=C(NCCCCCCCCCC[P+](c1ccccc1)(c1ccccc1)c1ccccc1)c1ccc(-n2nc(-c3ccccc3O)nc2-c2ccccc2O)cc1` ? -75.1

Would you kindly share the measured growth for `Cc1ccc(F)cc1N/C=c1\s/c(=C(\C#N)C(=O)Nc2ccccc2)n(-c2ccccc2)c1=O` ? -16.7

Would you kindly share the measured growth for `O=C1Nc2ccc(Cl)cc2/C1=C/c1cccc(OCc2ccccc2)c1` ? 84.2

Would you kindly share the measured growth for `O=C1NC(=NC23CC4CC(CC(C4)C2)C3)N/C1=C\c1ccc2ncsc2c1` ? -11.3

Would you kindly share the measured growth for `Cc1ccc(/C(N)=N/c2sc(-c3ccccc3)nc2-c2ccccc2)cc1` ? 91.1

----------
System: IGROV1 ovarian
Method: NCI-60 one-dose screen, 48 h (100 = growth as untreated, 0 = no growth, -100 = all killed)
Measurement Conditions: 10 µM
The panel holds about 83,000 compounds, 20% with a hit somewhere; the sample as a whole holds those more often.
Output met for records whose growth is lower than 40%, not met for records at or above 40%.

A selection of reference data follows.
Cc1ccn2c(C(=O)c3ccccc3)cc(-c3cc(-c4ccc(N(C)C)cc4)c(C#N)c(N)n3)c2c1 : not met
COc1cccc(-c2ccnc(/N=C(\N)Nc3ccc(S(=O)(=O)Nc4nc(C)cc(C)n4)cc3)n2)c1 : not met
O=C(CNc1nc(-c2ccccc2)cs1)Nc1ccc(Cl)cc1[N+](=O)[O-] : met
CC(=O)c1cc(C(=O)N2c3ccccc3Sc3ccccc32)n2ccc(C)cc12 : met
Cc1ccc(-c2cc(-c3cc4ccccc4nc3Cl)[nH]c(=S)n2)cc1 : not met

Lab note: confirm whether the reported growth for this molecule is below 40%, equality not counting. molecule: `N#Cc1c(Cl)nc(SCc2ccc(F)cc2)nc1-c1ccc(F)cc1` not met

Lab note: confirm whether the reported growth for this molecule is below 40%, equality not counting. molecule: `CCN1CCN(c2ccc(NC(=O)Nc3ccc(-c4cc(C(=O)NC(C)C)c5ncccc5n4)cc3)cc2C(F)(F)F)CC1` met

----------
Tested on: M14 melanoma
Method: NCI-60 one-dose screen, 48 h (100 = growth as untreated, 0 = no growth, -100 = all killed)
Measurement Conditions: 10 µM
This is part of a sample that, as a whole, favours compounds with a hit. Of some 83,000 tested, about 20% had one in any assay. Active and inactive are the calls of the source. The calls were made as follows: active = growth percent below 10; inactive = the rest.
Below is a list of entries, each paired with its recorded growth value.

COc1ccc(/C(C)=N/N=C2C(=O)N(C)c3ccc(Br)cc32)cc1S(N)(=O)=O : 87.1% (inactive)
C#CCNC(=O)[C@]12CCC(C)(C)C[C@H]1C1=CC[C@@H]3[C@@](C)(CCC#N)[C@H](C(=C)C)CC[C@@]3(C)[C@]1(C)CC2 : 76.3% (inactive)
COC[C@@H](CC(C)C)N=C1N/C(=C\c2ccc3ncsc3c2)C(=O)N1C : 38.1% (inactive)
O=c1[nH]c2ccccc2cc1CSc1ccc(Nc2nccc(-c3ccc(Cl)cc3)n2)cc1 : 30.8% (inactive)
COc1ccc(CN2[C@H](C(=O)NCc3ccc(C(=O)NO)cc3)Cc3c([nH]c4ccccc34)[C@H]2C2CC2)cc1 : 49.6% (inactive)
O=C(NCCCCCCCCCC[P+](c1ccccc1)(c1ccccc1)c1ccccc1)c1ccc(-n2nc(-c3ccccc3O)nc2-c2ccccc2O)cc1 : -84.9% (active)
CN1CCN(c2ccc(Nc3nc(NCCCNC(=O)c4ccc(F)cc4)c4sccc4n3)cc2)CC1 : -7% (active)

Switching to the query record.
Would you kindly share the measured growth for `C/C(=N\NC(N)=S)c1ccc(Nc2nc(SC(C)C)nc(-c3ccccc3)c2C#N)cc1` ? 77.4% (inactive)

----------
System: NCI-H226 lung
Method: NCI-60 one-dose screen, 48 h
Measurement Conditions: 10 µM
The panel holds about 83,000 compounds, 20% with a hit somewhere; the sample as a whole holds those more often. The source made the active and inactive calls. How the source made its calls: active means growth percent below 10; inactive means the rest.
Parameter call: string, one of active, inactive

A selection of reference data follows.
COc1ccc(-c2cc(C(=O)N=Nc3c(O)[nH]c4ccc(F)cc34)c3ccccc3n2)cc1 : inactive
CC(=O)NCC1=C(C)C=C2C(=O)[C@](C)(O)C3(CC3)C(C)=C21 : active
CC1(C)CC[C@]2(C(=O)Nc3ccccc3)CC[C@]3(C)C(=CC[C@@H]4[C@@]5(C)CC[C@H](N)C(C)(C)[C@@H]5CC[C@]43C)[C@H]2C1 : inactive

# input for lookup
// param item: `O=C(NCCCCC(c1ccc(F)cc1)c1ccc(F)cc1)NCCCc1cccnc1` ; yields the recorded call inactive

----------
Test system: HCT-116 colon
Method: NCI-60 one-dose screen, 48 h (100 = growth as untreated, 0 = no growth, -100 = all killed)
Measurement Conditions: 10 µM
Compounds without any hit were thinned out: in the full panel of roughly 83,000, 20% have a hit.
Class boundaries, taken from values of growth, are as follows: band 1 (below 10%), band 2 (10% to below 80%), band 3 (80% or more)

COc1cccc2nc(Nc3ccc(F)c(NC(=O)c4ccc(CN5CCN(C)CC5)c(C(F)(F)F)c4)c3)ccc12 : band 1
COc1ccc(CN2[C@@H](C(=O)NCc3ccc(C(=O)NO)cc3)Cc3c([nH]c4ccccc34)[C@@H]2C2CC2)cc1 : band 2
COc1cc(NC(=O)c2cc(-c3ccc(F)cc3F)ccc2O)cc(OC)c1OC : band 2
COc1cccc(/C=C2\N=C(C)N(CCc3ccc(S(N)(=O)=O)cc3)C2=O)c1 : band 3
COc1ccc(-c2c(N)c(=O)n(C)c3ccccc23)cc1 : band 2

Which of the defined bands does the recorded growth of COC(=O)CC1CC1C1Cc2c(nc(N(C)S(C)(=O)=O)nc2C(C)C)-c2ccc(F)cc21 (centres undefined) sit within? band 2

Which of the defined bands does the recorded growth of `CC1=N/C(=C\c2ccc(N(C)C)cc2)C(=O)N1CCc1ccc(S(N)(=O)=O)cc1` sit within? band 3

Which of the defined bands does the recorded growth of `O=C(Nc1cccc(C(F)(F)F)c1)c1cncc(C#Cc2cnc3ccc(N4CCOCC4)nn23)c1` sit within? band 1
